System: acute self-limiting colitis in mice
Assay: Histological scoring of inflammation, C. rodentium colitis in germ-free mice colonized with B. ovatus (Example 3)
Format: in vivo
Settings: cecal tissue; gavage 3 days; prednisolone forms 1 mg/kg/day, dexamethasone forms 0.6 mg/kg/day; n=2
quantity.name: Globlet cell

# compound, quantity.name, recorded.number
data = [
    ("C[C@]12C=CC(=O)C=C1CC[C@@H]1[C@@H]2[C@@H](O)C[C@@]2(C)[C@H]1CC[C@]2(O)C(=O)CO[C@@H]1OC(CO)[C@@H](O[C@@H]2OC(CO[C@H]3OC[C@@H](O)C(O)C3O)[C@@H](O[C@@H]3OC(CO[C@H]4OC[C@@H](O)C(O)C4O)[C@@H](O[C@@H]4OC(CO[C@H]5OC[C@@H](O)C(O)C5O)[C@@H](O)C(O)C4O)C(O)C3O)C(O)C2O)C(O)C1O (stereo partly shown)", "Globlet cell", 0),
    ("C[C@]12C=CC(=O)C=C1CC[C@@H]1[C@@H]2[C@@H](O)C[C@@]2(C)[C@H]1CC[C@]2(O)C(=O)CO [prednisolone, reference compound]", "Globlet cell", 0.5),
    ("C[C@@H]1C[C@H]2[C@@H]3CCC4=CC(=O)C=C[C@]4(C)[C@@]3(F)[C@@H](O)C[C@]2(C)[C@@]1(O)C(=O)CO [dexamethasone, reference compound]", "Globlet cell", 0),
    ("C[C@@H]1C[C@H]2[C@@H]3CCC4=CC(=O)C=C[C@]4(C)[C@@]3(F)[C@@H](O)C[C@]2(C)[C@@]1(O)C(=O)CO[C@@H]1OC(CO)[C@@H](O[C@@H]2OC(CO[C@H]3OC[C@@H](O)C(O)C3O)[C@@H](O[C@@H]3OC(CO[C@H]4OC[C@@H](O)C(O)C4O)[C@@H](O[C@@H]4OC(CO[C@H]5OC[C@@H](O)C(O)C5O)[C@@H](O)C(O)C4O)C(O)C3O)C(O)C2O)C(O)C1O (stereo partly shown)", "Globlet cell", 0.5),
]

====

Each entry below carries its reported Fibrosis.
Test system: acute self-limiting colitis in mice
Test: Histological scoring of inflammation, C. rodentium colitis in germ-free mice colonized with B. ovatus (Example 3)
Format: in vivo
Details: distal colon; gavage 3 days; prednisolone forms 1 mg/kg/day, dexamethasone forms 0.6 mg/kg/day; n=2

# compound, Fibrosis
rows = [
    ("C[C@@H]1C[C@H]2[C@@H]3CCC4=CC(=O)C=C[C@]4(C)[C@@]3(F)[C@@H](O)C[C@]2(C)[C@@]1(O)C(=O)CO [dexamethasone, reference compound]", 1),
    ("C[C@]12C=CC(=O)C=C1CC[C@@H]1[C@@H]2[C@@H](O)C[C@@]2(C)[C@H]1CC[C@]2(O)C(=O)CO[C@@H]1OC(CO)[C@@H](O[C@@H]2OC(CO[C@H]3OC[C@@H](O)C(O)C3O)[C@@H](O[C@@H]3OC(CO[C@H]4OC[C@@H](O)C(O)C4O)[C@@H](O[C@@H]4OC(CO[C@H]5OC[C@@H](O)C(O)C5O)[C@@H](O)C(O)C4O)C(O)C3O)C(O)C2O)C(O)C1O (stereo partly shown)", 0),
    ("C[C@]12C=CC(=O)C=C1CC[C@@H]1[C@@H]2[C@@H](O)C[C@@]2(C)[C@H]1CC[C@]2(O)C(=O)CO [prednisolone, reference compound]", 1.5),
    ("C[C@@H]1C[C@H]2[C@@H]3CCC4=CC(=O)C=C[C@]4(C)[C@@]3(F)[C@@H](O)C[C@]2(C)[C@@]1(O)C(=O)CO[C@@H]1OC(CO)[C@@H](O[C@@H]2OC(CO[C@H]3OC[C@@H](O)C(O)C3O)[C@@H](O[C@@H]3OC(CO[C@H]4OC[C@@H](O)C(O)C4O)[C@@H](O[C@@H]4OC(CO[C@H]5OC[C@@H](O)C(O)C5O)[C@@H](O)C(O)C4O)C(O)C3O)C(O)C2O)C(O)C1O (stereo partly shown)", 0),
]

====

Tested on: acute self-limiting colitis in mice
Experiment: Histological scoring of inflammation, C. rodentium colitis in germ-free mice colonized with B. ovatus (Example 3)
Type: in vivo
Settings: distal colon; sum of each scoring category; n=2

# molecule, Total Score
measured = [
    ("C[C@@H]1C[C@H]2[C@@H]3CCC4=CC(=O)C=C[C@]4(C)[C@@]3(F)[C@@H](O)C[C@]2(C)[C@@]1(O)C(=O)CO [dexamethasone, reference compound]", 9.5),
    ("C[C@]12C=CC(=O)C=C1CC[C@@H]1[C@@H]2[C@@H](O)C[C@@]2(C)[C@H]1CC[C@]2(O)C(=O)CO [prednisolone, reference compound]", 10),
    ("C[C@@H]1C[C@H]2[C@@H]3CCC4=CC(=O)C=C[C@]4(C)[C@@]3(F)[C@@H](O)C[C@]2(C)[C@@]1(O)C(=O)CO[C@@H]1OC(CO)[C@@H](O[C@@H]2OC(CO[C@H]3OC[C@@H](O)C(O)C3O)[C@@H](O[C@@H]3OC(CO[C@H]4OC[C@@H](O)C(O)C4O)[C@@H](O[C@@H]4OC(CO[C@H]5OC[C@@H](O)C(O)C5O)[C@@H](O)C(O)C4O)C(O)C3O)C(O)C2O)C(O)C1O (stereo partly shown)", 6),
    ("C[C@]12C=CC(=O)C=C1CC[C@@H]1[C@@H]2[C@@H](O)C[C@@]2(C)[C@H]1CC[C@]2(O)C(=O)CO[C@@H]1OC(CO)[C@@H](O[C@@H]2OC(CO[C@H]3OC[C@@H](O)C(O)C3O)[C@@H](O[C@@H]3OC(CO[C@H]4OC[C@@H](O)C(O)C4O)[C@@H](O[C@@H]4OC(CO[C@H]5OC[C@@H](O)C(O)C5O)[C@@H](O)C(O)C4O)C(O)C3O)C(O)C2O)C(O)C1O (stereo partly shown)", 6.5),
]

====

Reported Epithelial Injury values for the following molecules.
Test system: acute self-limiting colitis in mice
Test: Histological scoring of inflammation, C. rodentium colitis in germ-free mice colonized with B. ovatus (Example 3)
Type: in vivo
Conditions: distal colon; gavage 3 days; prednisolone forms 1 mg/kg/day, dexamethasone forms 0.6 mg/kg/day; n=2
quantity.name: Epithelial Injury

# molecule, quantity.name, recorded.number
data = [
    ("C[C@]12C=CC(=O)C=C1CC[C@@H]1[C@@H]2[C@@H](O)C[C@@]2(C)[C@H]1CC[C@]2(O)C(=O)CO[C@@H]1OC(CO)[C@@H](O[C@@H]2OC(CO[C@H]3OC[C@@H](O)C(O)C3O)[C@@H](O[C@@H]3OC(CO[C@H]4OC[C@@H](O)C(O)C4O)[C@@H](O[C@@H]4OC(CO[C@H]5OC[C@@H](O)C(O)C5O)[C@@H](O)C(O)C4O)C(O)C3O)C(O)C2O)C(O)C1O (stereo partly shown)", "Epithelial Injury", 1),
    ("C[C@@H]1C[C@H]2[C@@H]3CCC4=CC(=O)C=C[C@]4(C)[C@@]3(F)[C@@H](O)C[C@]2(C)[C@@]1(O)C(=O)CO [dexamethasone, reference compound]", "Epithelial Injury", 1),
    ("C[C@@H]1C[C@H]2[C@@H]3CCC4=CC(=O)C=C[C@]4(C)[C@@]3(F)[C@@H](O)C[C@]2(C)[C@@]1(O)C(=O)CO[C@@H]1OC(CO)[C@@H](O[C@@H]2OC(CO[C@H]3OC[C@@H](O)C(O)C3O)[C@@H](O[C@@H]3OC(CO[C@H]4OC[C@@H](O)C(O)C4O)[C@@H](O[C@@H]4OC(CO[C@H]5OC[C@@H](O)C(O)C5O)[C@@H](O)C(O)C4O)C(O)C3O)C(O)C2O)C(O)C1O (stereo partly shown)", "Epithelial Injury", 1),
    ("C[C@]12C=CC(=O)C=C1CC[C@@H]1[C@@H]2[C@@H](O)C[C@@]2(C)[C@H]1CC[C@]2(O)C(=O)CO [prednisolone, reference compound]", "Epithelial Injury", 2),
]

====

Tested on: acute self-limiting colitis in mice
Experiment: Histological scoring of inflammation, C. rodentium colitis in germ-free mice colonized with B. ovatus (Example 3)
Format: in vivo
Conditions: proximal colon; gavage 3 days; prednisolone forms 1 mg/kg/day, dexamethasone forms 0.6 mg/kg/day; n=2
Quick reference: Inflamm of the listed items.

# compound, Inflamm
records = [
    ("C[C@]12C=CC(=O)C=C1CC[C@@H]1[C@@H]2[C@@H](O)C[C@@]2(C)[C@H]1CC[C@]2(O)C(=O)CO[C@@H]1OC(CO)[C@@H](O[C@@H]2OC(CO[C@H]3OC[C@@H](O)C(O)C3O)[C@@H](O[C@@H]3OC(CO[C@H]4OC[C@@H](O)C(O)C4O)[C@@H](O[C@@H]4OC(CO[C@H]5OC[C@@H](O)C(O)C5O)[C@@H](O)C(O)C4O)C(O)C3O)C(O)C2O)C(O)C1O (stereo partly shown)", 2),
    ("C[C@@H]1C[C@H]2[C@@H]3CCC4=CC(=O)C=C[C@]4(C)[C@@]3(F)[C@@H](O)C[C@]2(C)[C@@]1(O)C(=O)CO [dexamethasone, reference compound]", 1.5),
    ("C[C@]12C=CC(=O)C=C1CC[C@@H]1[C@@H]2[C@@H](O)C[C@@]2(C)[C@H]1CC[C@]2(O)C(=O)CO [prednisolone, reference compound]", 1.5),
    ("C[C@@H]1C[C@H]2[C@@H]3CCC4=CC(=O)C=C[C@]4(C)[C@@]3(F)[C@@H](O)C[C@]2(C)[C@@]1(O)C(=O)CO[C@@H]1OC(CO)[C@@H](O[C@@H]2OC(CO[C@H]3OC[C@@H](O)C(O)C3O)[C@@H](O[C@@H]3OC(CO[C@H]4OC[C@@H](O)C(O)C4O)[C@@H](O[C@@H]4OC(CO[C@H]5OC[C@@H](O)C(O)C5O)[C@@H](O)C(O)C4O)C(O)C3O)C(O)C2O)C(O)C1O (stereo partly shown)", 1),
]
